Recorded Percent pain reversal at time in min, one value per entry.
Tested on: nerve-ligation induced pain (rat model of spinal nerve ligation, SNL)
Test: Neuropathic pain model (Chung model): rat spinal nerve ligation, mechanical allodynia by Von Frey hairs
Type: in vivo
Conditions: dose 0.3 mg/kg; 60 min
Structures can show the parent of a compound that is named as a salt.
REPORTED_METRIC: Percent pain reversal at time in min

N[C@@H](C(=O)N1CCCC1)[C@@H](O)c1ccc(F)cc1 (racemic) [Compound 1, hydrochloride]	52%
N[C@@H](C(=O)N1CCCC1)[C@@H](O)c1ccc(F)cc1 [Compound 3, hydrochloride]	75.5%
N[C@@H](C(=O)N1CCCC1)[C@@H](O)c1ccc(Cl)cc1 (racemic) [reference compound]	8.6%
N[C@@H](C(=O)N1CCCC1)[C@@H](O)c1ccc(I)cc1 (racemic) [reference compound]	7.3%
